Molecular target: helical B-DNA
Experiment: DNA binding/denaturation/precipitation from solution
Settings: Expt. 2 (second value in cell); read-out: DNA Bind/ppt. IC50, Expt. 2
Description: […]
pIC50: −log10 of the molar value.
parameter.measured: pIC50

CCNCCCCNCCCCNCCCCNCCCCNCC=C(CS)CNCCCCNCCCCNCCCCNCCCCNCC [PrC-117] ... 4.24
CCNCCCCNCCCCNCC=C(CS)CNCCCCNCCCCNCC [PrC-115] ... 4.08
CCNCCCCNCCCCNCCCCNCC=C(CS)CNCCCCNCCCCNCCCCNCC [PrC-116] ... 4.20

---

System: 23SK skin cells
Assay: Cell cycle distribution by flow cytometry in 23SK skin cells
Assay type: cell-based, human
Details: 23SK cells, IC80 dose
parameter.measured: Cell Cycle Distribution At IC80 Dose: S (%)
Number in %, nothing else.

See these solved cases before continuing.
CCNCCCCNCC=C(CNCC)CNCCCCNCC [PrC-110] ... 26
CCNCCCCNCCCCNCCCCNCC=C(CS)CNCCCCNCCCCNCCCCNCC [PrC-116] ... 11
CCNCCCCNCCCCNCCCCNCC=C(CNCC)CNCCCCNCCCCNCCCCNCC [PrC-112] ... 23
CCNCCCCNCCCCNCCCCNCCCCNCC=C(CNCCCCNCCCCNCCCCNCCCCNCC)CN(C)C [PrC-121] ... 4
CCNCCCCNCCCCNCC=C(CNCC)CNCCCCNCCCCNCC [PrC-111] ... 25
CCNCCCCNCCCCNCCCCNCCCCNCC=C(CS)CNCCCCNCCCCNCCCCNCCCCNCC [PrC-117] ... 11

*Q* Short answer please: Cell Cycle Distribution At IC80 Dose: S, 23SK skin cells, entry CN[C@H]1CCc2cc(OC)c(OC)c(OC)c2-c2ccc(OC)c(=O)cc21 [Colcemid, reference compound]
*A* 11

*Q* Short answer please: Cell Cycle Distribution At IC80 Dose: S, 23SK skin cells, entry CCNCCCCNCCCCNCCCCNCCCCNCC=C(CNCC)CNCCCCNCCCCNCCCCNCCCCNCC [PrC-113]
*A* 8
